Structures can show the parent of a compound that is named as a salt.
measurement.name: melting point

Take a look at these entries with their results.
# compound, melting point
records = [
    ("COc1ccc2cc(C(=O)C(C)N3CCN(Cc4ccccc4)CC3)ccc2c1Cl (centres unmarked) (as salt: hydrochloride)", "252 to 253 °C (dec.)"),
    ("O=C(CN1CCN(Cc2ccc([N+](=O)[O-])cc2)CC1)c1ccccc1 (as salt: hydrochloride) [IV-4]", "236 to 238 °C"),
    ("CC(=O)Nc1ccc(CN2CCN(CC(=O)c3ccccc3)CC2)cc1 (as salt: hydrochloride) [IV-21]", "238 to 240 °C"),
    ("COc1ccc2cc(C(=O)C(C)N3CCN(Cc4ccc(N)cc4)CC3)ccc2c1Cl (centres unmarked) (as salt: hydrochloride)", "206 to 208 °C"),
    ("COc1ccc2cc(C(=O)C(C)N3CCN(Cc4ccc5c(c4)OCO5)CC3)ccc2c1Cl (centres unmarked) (as salt: hydrochloride)", "230 to 232 °C"),
    ("COc1ccc(C(=O)CN2CCN(Cc3ccccc3)CC2)cc1 (as salt: hydrochloride) [IV-8]", "228 to 230 °C"),
    ("O=C(CN1CCN(Cc2cccnc2)CC1)c1ccccc1 (as salt: hydrochloride) [IV-11]", "225 to 226 °C"),
    ("O=C(CN1CCN(Cc2ccccc2)CC1)c1ccc(Cl)cc1 (as salt: hydrochloride) [IV-6]", "231 to 233 °C"),
    ("O=C(CCN1CCN(Cc2ccccc2)CC1)c1ccccc1 (as salt: hydrochloride) [IV-17]", "230 to 232 °C"),
    ("O=C(CN1CCN(Cc2ccc3c(c2)OCO3)CC1)c1ccccc1 (as salt: hydrochloride) [IV-19]", "240 to 241 °C"),
]

Give the reported value of melting point for this record: Cc1ccc(C(=O)CN2CCN(C(C)c3ccccc3)CC2)cc1 (centres unmarked) (as salt: hydrochloride) [IV-40]
230 to 232 °C

Give the reported value of melting point for this record: COc1ccc(CN2CCN(CC(=O)c3ccccc3)CC2)cc1 (as salt: hydrochloride) [IV-10]
222 to 224 °C

Give the reported value of melting point for this record: O=C(CN1CCN(Cc2ccccc2)CC1)c1ccc([N+](=O)[O-])cc1 (as salt: hydrochloride) [IV-9]
236 to 238 °C

Give the reported value of melting point for this record: Nc1ccc(C(=O)CN2CCN(Cc3ccccc3)CC2)cc1 (as salt: hydrochloride) [IV-16]
286 to 288 °C

----------
- Test system: Kunming mice
- measurement.description: Mice writhing model (acetic acid)
- Assay type: in vivo
- test.context: i.p. 20 mg/Kg; acetic acid 0.7% i.p. after 30 minutes; writhes in 5 minutes
- Procedure: Kunming mice were used, with a male-female ratio of 50-50%. The test compound is administered i.p. (20 mg/Kg body weight) to the test groups, and physiological saline is administered P.O. (20 ml/Kg body weight) to the control group. After 30 minutes, acetic acid (0.7%, […] i.p.) was injected and the number of writhes was observed during a 5-minute period after acetic acid administration. The inhibition ratio of the writhing threshold was calculated. […]
Parameter threshold = 40%. Response is yes when Analgesia (inhibition ratio of writhing) meets or exceeds it, else no.

# compound, label.class
records = [
    ("COc1ccc(C(=O)CN2CCN(CCC(O)c3ccccc3)CC2)cc1 (centres unmarked) [IV-22]", "yes"),
    ("C[C@@H](c1ccccc1)N1CCN(CC(=O)c2ccccc2)CC1 [IV-39]", "yes"),
]

Is reported Analgesia (inhibition ratio of writhing) greater than or equal to 40% here: Cc1ccc(C(=O)CN2CCN([C@@H](C)c3ccccc3)CC2)cc1 [IV-42]
yes

Is reported Analgesia (inhibition ratio of writhing) greater than or equal to 40% here: O=C(CN1CCN(Cc2cccc3ccccc23)CC1)c1ccccc1 [IV-58]
yes

Is reported Analgesia (inhibition ratio of writhing) greater than or equal to 40% here: CCOC(=O)C(c1ccccc1)N1CCN(CC(=O)c2ccccc2)CC1 (centres unmarked) [IV-5]
no
